Hey, just so you know, these numbers are from patent US20250346668A1.

measured-target: T1, human CD3e/g antigen (ACRO, catalog number CDG-H52W5) (human, UniProt P07766 23-126; P09693 23-116)
T1 construct: Bought reagent used as the Biacore analyte; also called hCD3e/g
assay-comment: SPR (Biacore 8K), antibody captured via anti-human Fc
The entries below come with measured pKd values attached.
Would you please state pKd, meaning minus log10 of the concentration in mol/L, as a bare number?

# lookup: pKd of hAb001-18 (antibody, V domains shown, Humanized; constant regions not specified) VH: QVQLVQSGAEVKKPGASVKVSCKASGYSFTNYYMHWVRQAPGQRLEWMGWTYPGNNNIKYNEKFKGRVTITRDTSASTAYMELSSLRSEDTAVYYCARDGYGYYFFDYWGQGTLVTVSS VL: DIVMTQSPDSLAVSLGERATINCKSSQSLLNNRTRKNYLAWYQQKPGQPPKLLIYWASTRESGVPDRFTGSGSGTDFTLTISSLQAEDVAVYYCKQSYTLRTFGGGTKLEIK
7.45

# get_value(readout='pKd', item= hAb007-19 (antibody, V domains shown, Humanized; constant regions not specified) VH: QVQLVQSGAEVKKPGASVKVSCKASGSTFTDNYIHWVRQAPGQRLEWMGWIYPGSVNIKYNEKFKDRVTITRDTSASTAYMELSSLRSEDTAVYYCARDISRYYFDYWGQGTTVTVSS VL: DIVMTQSPDSLAVSLGERATMNCKSSQSLLNSRTRKNYLAWYQQKPGQPPKLLIYWASTRESGVPDRFSGSGSGTDFTLTISSLQAEDVAVYYCKQSFILRTFGGGTKLEIK )
8.03

What value of pKd has been recorded for this entry: hAb001-17 (antibody, V domains shown, Humanized; constant regions not specified) VH: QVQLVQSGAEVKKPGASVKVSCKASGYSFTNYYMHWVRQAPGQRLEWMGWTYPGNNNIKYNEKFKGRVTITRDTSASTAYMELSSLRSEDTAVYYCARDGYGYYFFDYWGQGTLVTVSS VL: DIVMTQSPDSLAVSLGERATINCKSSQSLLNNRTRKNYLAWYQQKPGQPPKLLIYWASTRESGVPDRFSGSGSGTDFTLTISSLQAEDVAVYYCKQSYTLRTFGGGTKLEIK
7.80
